meta.source: patent US9278138B2

experiment: Phage ELISA of phage binding to hair; parameters: species or system human; details: phage-displayed peptide, 1×10^11 pfu; A450; relative to HP2-TonB-Gray3 = 100
PARAMETER_MEASURED: ELISA (%) relative to the activity of HP2-TonB-Gray3
Numbers only, in %.

Answered examples (5):
SUBSTANCE | OBS_VALUE
HB1-(KGGGS)4-HP2: hair-binding domain with flexible linker, SEQ ID NO: 95 (PSTPPTNVLMLATKGPKGGGSKGGGSKGGGSKGGGSPAAQSQLPDKHSGLHERAPQRYGS) | 1
Gray1-(KP)8-Gray1: hair-binding domain, SEQ ID NO: 77 (PSGMPAMHWIHPFAGPKPKPKPKPKPKPKPKPPAGMPAMHWIHPFAGS) | 1
Gray3-[(KP)6GG]2-KF11: hair-binding domain, SEQ ID NO: 83 (PSHDHKNQKETHQRHAAGPKPKPKPKPKPKPGGKPKPKPKPKPKPGGPANTSQLSTGS) | 1
KF11-[(KP)6GG]2-KF11: hair-binding domain, SEQ ID NO: 101 (PSNTSQLSTGPKPKPKPKPKPKPGGKPKPKPKPKPKPGGPANTSQLSTGS) | 1
HP2-(EEAAKK)2-MEA4: hair-binding domain, SEQ ID NO: 76 (PSAQSQLPDKHSGLHERAPQRYGPEEAAKKEEAAKKPAHINKTNPHQGNHHSEKTQRQGS) | 130

Proceed to the following item.
Reported ELISA (%) relative to the activity of HP2-TonB-Gray3, substance HB1-(KP)12-IB5A: hair-binding domain, SEQ ID NO: 96 (PSTPPTNVLMLATKGPKPKPKPKPKPKPKPKPKPKPKPKPPATPPELLHGAPRSGS) : ____
1
